biological target: CNR1 (also known as CB1) (Homo sapiens, UniProt P21554); construct: β-galactosidase enzyme fragment (implied by the complementation read-out); assay type: cell-based; conditions: read-out: CNR1 β-Arrestin EC50
Sequence (P21554 whole entry, species assumed, the tested form may be a part): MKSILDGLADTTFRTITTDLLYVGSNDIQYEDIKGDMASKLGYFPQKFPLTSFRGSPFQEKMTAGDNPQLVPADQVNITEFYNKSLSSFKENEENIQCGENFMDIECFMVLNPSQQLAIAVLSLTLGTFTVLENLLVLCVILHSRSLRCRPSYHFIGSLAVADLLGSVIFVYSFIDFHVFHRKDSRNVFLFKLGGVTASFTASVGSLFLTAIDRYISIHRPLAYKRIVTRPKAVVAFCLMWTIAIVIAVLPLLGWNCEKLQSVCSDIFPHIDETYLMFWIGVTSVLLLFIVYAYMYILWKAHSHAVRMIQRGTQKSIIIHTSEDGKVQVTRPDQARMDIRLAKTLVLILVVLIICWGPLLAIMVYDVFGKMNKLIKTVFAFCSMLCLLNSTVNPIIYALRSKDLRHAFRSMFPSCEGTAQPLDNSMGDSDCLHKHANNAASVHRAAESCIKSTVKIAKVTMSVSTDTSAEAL
pEC50: −log10 of the molar value.
parameter measured: pEC50

INPUT: Output pEC50 of `CCCCCc1cc(O)c2c(c1)OC(C)(C)[C@@H]1CCC(CO)=C[C@@H]21`
OUTPUT: < 4.78

* * *

target: CNR2 (also known as CB2) (Homo sapiens, UniProt P34972); construct: β-galactosidase enzyme fragment (implied by the complementation read-out); experiment: cAMP competitive inhibition immunoassay (HitHunter), CNR2 activation; format: cell-based; conditions: CNR2, cAMP assay
Sequence (P34972 whole entry, species assumed, the tested form may be a part): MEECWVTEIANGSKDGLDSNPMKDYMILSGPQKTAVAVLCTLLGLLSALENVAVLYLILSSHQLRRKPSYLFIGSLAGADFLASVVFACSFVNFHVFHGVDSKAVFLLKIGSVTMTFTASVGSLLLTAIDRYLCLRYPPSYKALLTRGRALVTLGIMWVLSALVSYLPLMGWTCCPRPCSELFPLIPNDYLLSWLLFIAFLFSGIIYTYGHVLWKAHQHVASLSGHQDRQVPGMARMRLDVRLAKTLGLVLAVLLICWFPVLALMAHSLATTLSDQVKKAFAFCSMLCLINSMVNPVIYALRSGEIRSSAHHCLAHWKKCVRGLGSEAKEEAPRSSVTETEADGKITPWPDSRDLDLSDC
parameter measured: EC50 (nM)
Give a bare numeral; the unit nM is implied.

INPUT: Report EC50, nothing else, for this compound: CCCCCc1cc(O)c2c(c1)OC(C)(C)[C@@H]1CCC(CO)=C[C@@H]21 [Example 11-OH-THC]
OUTPUT: 571

Ref: patent US10806707B2
